These measurements were taken from the supplement of paper PMC8728848.

# study-target: Neu5Ac(a2-6)Gal(b1-4)GlcNAc
# experiment-description: glycan array binding signal (z-score within array); higher = stronger binding
# condition-details: glycan notation: IUPAC condensed, linker removed
The entries come from a sample that favours the strongest signals as a whole.
assay-endpoint: glycan array binding signal (z-score)

Answered cases to consult:
binder	glycan array binding signal (z-score)
LecB PA14 (Pseudomonas aeruginosa) (protein) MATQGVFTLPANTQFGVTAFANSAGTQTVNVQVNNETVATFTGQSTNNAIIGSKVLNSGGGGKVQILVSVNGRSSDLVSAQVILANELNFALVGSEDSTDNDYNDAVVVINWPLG	-0.39
BC2LB (Burholderia cenocepacia), B4EH85_BURCJ (protein) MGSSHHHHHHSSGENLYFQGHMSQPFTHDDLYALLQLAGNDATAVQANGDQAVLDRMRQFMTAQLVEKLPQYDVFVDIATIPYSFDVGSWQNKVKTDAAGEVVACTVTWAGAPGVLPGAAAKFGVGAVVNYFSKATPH	-0.206
Pbx1CASH domain (Cryptococcus neoformans) (protein) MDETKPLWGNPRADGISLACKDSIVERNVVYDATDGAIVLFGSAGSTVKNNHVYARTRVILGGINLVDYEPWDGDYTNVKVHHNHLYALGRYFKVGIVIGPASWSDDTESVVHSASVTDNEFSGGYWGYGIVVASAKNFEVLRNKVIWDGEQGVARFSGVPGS	-0.348
cupB6 (Pseudomonas aeruginosa), Q02SP7 (protein) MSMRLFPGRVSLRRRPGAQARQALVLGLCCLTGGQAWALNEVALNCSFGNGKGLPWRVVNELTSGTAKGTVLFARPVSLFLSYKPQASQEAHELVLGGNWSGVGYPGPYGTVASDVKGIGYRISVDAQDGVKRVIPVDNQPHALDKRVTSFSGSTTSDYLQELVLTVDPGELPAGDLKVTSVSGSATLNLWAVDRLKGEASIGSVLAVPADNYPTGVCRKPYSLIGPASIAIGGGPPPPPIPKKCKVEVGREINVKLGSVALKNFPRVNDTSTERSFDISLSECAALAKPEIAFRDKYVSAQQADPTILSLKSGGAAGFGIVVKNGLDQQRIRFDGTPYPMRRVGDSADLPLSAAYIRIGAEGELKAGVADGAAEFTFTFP	-0.15
LlpA (Burkholderia cenocepacia) (protein) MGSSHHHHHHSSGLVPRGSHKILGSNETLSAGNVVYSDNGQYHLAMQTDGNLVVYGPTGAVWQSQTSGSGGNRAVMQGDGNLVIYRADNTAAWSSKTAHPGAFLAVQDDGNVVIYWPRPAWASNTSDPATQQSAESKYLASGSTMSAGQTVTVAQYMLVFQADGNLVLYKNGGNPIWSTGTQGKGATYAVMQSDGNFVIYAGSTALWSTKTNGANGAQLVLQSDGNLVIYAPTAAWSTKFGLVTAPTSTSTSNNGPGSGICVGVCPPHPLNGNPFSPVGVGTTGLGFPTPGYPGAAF	-0.538

In: glycan array binding signal (z-score) lookup needed for SAG3 (Toxoplasma gondii), Q9BJ39 (protein) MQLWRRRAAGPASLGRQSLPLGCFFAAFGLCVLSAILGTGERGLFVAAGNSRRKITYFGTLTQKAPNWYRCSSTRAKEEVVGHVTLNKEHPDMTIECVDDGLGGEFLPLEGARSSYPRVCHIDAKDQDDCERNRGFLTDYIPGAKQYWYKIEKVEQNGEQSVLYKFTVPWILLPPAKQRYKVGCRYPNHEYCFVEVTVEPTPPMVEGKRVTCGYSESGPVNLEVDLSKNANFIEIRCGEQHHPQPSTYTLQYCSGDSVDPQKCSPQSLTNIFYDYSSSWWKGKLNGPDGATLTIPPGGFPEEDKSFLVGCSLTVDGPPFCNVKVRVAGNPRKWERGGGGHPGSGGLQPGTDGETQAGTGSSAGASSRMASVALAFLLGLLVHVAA , thanks.
Out: -0.372
